Reference source for all entries: ChEMBL document CHEMBL2407083

System: MDA-MB-231
experimentalDetails: Cytotoxicity against human MDA-MB-231 cells after 48 hrs by MTT assay
conditionSummary: MDA-MB-231, 48 h
# IC50 per entry
Respond with the bare value in µg/mL.

In [3]: df
Out[3]:
                                   molecule  property  quantitativeresult
0  NS(=O)(=O)c1ccc(N2C(=O)CSC2c2ccccc2F)cc1 (stereo unspecified)      IC50                25.9

## Task Request - read-out IC50 | tested on MDA-MB-231 | molecule NS(=O)(=O)c1ccc(N2C(=O)CSC2c2ccccc2Br)cc1 (stereo unspecified)
## Result 20.6

## Task Request - read-out IC50 | tested on MDA-MB-231 | molecule NS(=O)(=O)c1ccc(N2C(=O)CSC2c2cccc(Cl)c2)cc1 (stereo unspecified)
## Result 5.81

## Task Request - read-out IC50 | tested on MDA-MB-231 | molecule NS(=O)(=O)c1ccc(N2C(=O)CSC2c2ccccc2Cl)cc1 (stereo unspecified)
## Result 13.6

## Task Request - read-out IC50 | tested on MDA-MB-231 | molecule NS(=O)(=O)c1ccc(N2C(=O)CSC2c2ccc(Br)cc2)cc1 (stereo unspecified)
## Result 17.5

## Task Request - read-out IC50 | tested on MDA-MB-231 | molecule NS(=O)(=O)c1ccc(N2C(=O)CSC2c2ccc(Cl)cc2)cc1 (stereo unspecified)
## Result 7.16
